The values you see were collected from PubChem BioAssay AID1159580.

Assay: chemical genetic growth profiling, strain panel (AID 1159580);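 note: tested at 20 µM; growth read once vehicle control cultures reached saturation at 30 °C; 1 = growth at the plate median or of vehicle wells; lower values mean less growth of the strain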
Settings: S. cerevisiae deletion strains, growth OD, locus YDR159W, strain sac3, hits give low values
Out of some 5,500 compounds screened, about 2,000 (36%) were called active. Inconclusive results (about 18%) are left out. This is one part of the list.
Entries whose normalized growth is below 1 take class 1; entries at or above 1 take class 0.

C[C@@H]1CC[C@@]23CCC4(C)[C@@](C=CC5[C@@]6(C)CC[C@H](O)C(C)(C)C6CC[C@]54C)(OC2=O)C3[C@H]1C (stereo partly specified) = class 0
CC1(C)C(=O)CC[C@@]2(C)C1C[C@@H](O)[C@@]1(C)C3=CC(=O)O[C@@H](c4ccoc4)[C@]3(C)CCC21 (stereo partly specified) = class 0

We now examine a further compound.
Please state whether normalized growth is below 1 for NC[C@@H]1O[C@H](O[C@@H]2[C@@H](CO)OC(O[C@@H]3[C@@H](O)[C@H](N)C[C@H](N)[C@H]3O[C@H]3O[C@H](CO)[C@@H](O)[C@H](O)[C@H]3N)[C@@H]2O)[C@H](N)[C@@H](O)[C@@H]1O (stereo partly specified)
class 1
